Collected set of pKi measured with Carbonic anhydrase 1 (Homo sapiens, UniProt P00915) across studies.
pKi: −log10 of the molar value.

molecule | assaySystem | valueQualifier | pKi
O=C(NCCNCCNCCNC(=O)C(F)(F)F)C(F)(F)F | Carbonic anhydrase 1 (Homo sapiens, UniProt P00915) | < | 3.30
NS(=O)(=O)c1nc2ccc(NC(=O)CN(CCOCCOCCN(CC(=O)O)CC(=O)Nc3ccc4nc(S(N)(=O)=O)sc4c3)CC(=O)O)cc2s1 | Carbonic anhydrase 1 (Homo sapiens, UniProt P00915) | = | 7.64
C[C@H](CCC(=O)Nc1nnc(S(N)(=O)=O)s1)[C@H]1CC[C@H]2[C@@H]3[C@H](O)C[C@@H]4C[C@H](O)CC[C@]4(C)[C@H]3CC[C@]12C | Carbonic anhydrase 1 (Homo sapiens, UniProt P00915) | = | 6.39
COc1nc(Nc2ccc(S(N)(=O)=O)cc2)nc(OC)n1 | Carbonic anhydrase 1 (Homo sapiens, UniProt P00915) | = | 7.07
NS(=O)(=O)c1ccc(C(=O)N[C@@H](CC(=O)O)C(=O)O)cc1 | Carbonic anhydrase 1 (Homo sapiens, UniProt P00915) | = | 6.37
Cc1c(-c2nn(-c3ccccc3)cc2/C=N/O)nnn1-c1ccc(S(N)(=O)=O)cc1 | Carbonic anhydrase 1 (Homo sapiens, UniProt P00915) | = | 4.74
COc1ccc(CC(=O)NCCc2ccc(S(N)(=O)=O)cc2)cc1 | Carbonic anhydrase 1 (Homo sapiens, UniProt P00915) | = | 8.43
CCOc1ccc(S(=O)(=O)N[C@@H](C)CC)cc1-c1nnc2c(n1)c(C)nn2-c1ccc(C)cc1 | Carbonic anhydrase 1 (Homo sapiens, UniProt P00915) | = | 5.46
NS(=O)(=O)c1ccc(CNS(=O)(=O)c2ccc(NC(=S)NCc3ccccn3)cc2)cc1 | Carbonic anhydrase 1 (Homo sapiens, UniProt P00915) | = | 6.45
NS(=O)(=O)c1nc2ccc(NC(=O)CN(CCN(CCN(CC(=O)O)CC(=O)O)CC(=O)O)CC(=O)O)cc2s1 | Carbonic anhydrase 1 (Homo sapiens, UniProt P00915) | = | 7.44
NS(=O)(=O)c1ccc(NC(=O)Cc2ccccc2)cc1 | Carbonic anhydrase 1 (Homo sapiens, UniProt P00915) | = | 8.12
CN(CC(=O)NCCc1ccc(S(N)(=O)=O)cc1)C(=N)N | Carbonic anhydrase 1 (Homo sapiens, UniProt P00915) | = | 6.11
O=c1cc(-c2cn(S(=O)(=O)c3ccccc3)c3ccccc23)[s+]([O-])[nH]1 (centres undefined) | Carbonic anhydrase 1 (Homo sapiens, UniProt P00915) | < | 5.00
O=C(O)c1ccc(S(=O)(=O)N(Cl)Cl)cc1 | Carbonic anhydrase 1 (Homo sapiens, UniProt P00915) | = | 5.41
NS(=O)(=O)c1cc(C(=O)NCC(=O)NCC(=O)O)ccc1Cl | Carbonic anhydrase 1 (Homo sapiens, UniProt P00915) | = | 7.16
CC(=O)Nc1ccc(S(N)(=O)=O)cc1Cl | Carbonic anhydrase 1 (Homo sapiens, UniProt P00915) | = | 5.20
Cc1cc(C)[n+](CC(=O)Nc2ccc(S(=O)(=O)Nc3cccc(S(N)(=O)=O)c3)cc2)c(C)c1 | Carbonic anhydrase 1 (Homo sapiens, UniProt P00915) | = | 7.21
NS(=O)(=O)c1ccc(N/C(S)=N\c2ccc(C(=O)O)cc2)cc1 | Carbonic anhydrase 1 (Homo sapiens, UniProt P00915) | = | 7.23
NS(=O)(=O)c1ccc(/N=c2\scc(-c3ccc(Cl)cc3Cl)n2-c2ccccc2)cc1 | Carbonic anhydrase 1 (Homo sapiens, UniProt P00915) | = | 6.12
O=C(CSc1nccc(Nc2ccc(S(=O)(=O)Nc3ccccn3)cc2)n1)c1ccc(Cl)cc1 | Carbonic anhydrase 1 (Homo sapiens, UniProt P00915) | < | 4.00
Cc1nn(C)c2nnc(Nc3ccc(S(=O)(=O)NCCO)cc3)nc12 | Carbonic anhydrase 1 (Homo sapiens, UniProt P00915) | < | 4.30
NS(=O)(=O)c1ccc(CCON2C(=O)c3cccnc3C2=O)cc1 | Carbonic anhydrase 1 (Homo sapiens, UniProt P00915) | = | 5.70
CC1(C)C2CC[C@@]1(CS(=O)(=O)NCc1ccc(S(N)(=O)=O)cc1)C(=O)C2 | Carbonic anhydrase 1 (Homo sapiens, UniProt P00915) | = | 5.98
N/C(=N\S(=O)(=O)c1ccccc1SCc1cccc(C(F)(F)F)c1)NNc1nc(Cl)nc(Nc2ccc(S(N)(=O)=O)cc2)n1 | Carbonic anhydrase 1 (Homo sapiens, UniProt P00915) | = | 6.83
c1ccc2c(c1)c1c(n2Cc2ccc(Cn3c4c(c5ccccc53)CCCCC4)cc2)CCCCC1 | Carbonic anhydrase 1 (Homo sapiens, UniProt P00915) | = | 4.38
O=S(=O)(O)NS(=O)(=O)c1c(F)c(F)c(F)c(F)c1F | Carbonic anhydrase 1 (Homo sapiens, UniProt P00915) | = | 7.30
Cc1cc(-c2ccccc2)cc(C)[n+]1CC(=O)Nc1ccccc1S(N)(=O)=O | Carbonic anhydrase 1 (Homo sapiens, UniProt P00915) | = | 4.60
CC(C)[C@H](NC(=O)c1ccc(S(N)(=O)=O)cc1)C(=O)O | Carbonic anhydrase 1 (Homo sapiens, UniProt P00915) | = | 6.38
NCC(=O)NS(=O)(=O)c1ccc(CO)cc1 | Carbonic anhydrase 1 (Homo sapiens, UniProt P00915) | = | 5.74
NS(=O)(=O)c1ccc(C(=O)N[C@@H](Cc2cnc[nH]2)C(=O)O)cc1 | Carbonic anhydrase 1 (Homo sapiens, UniProt P00915) | = | 6.57
O=C(/C=C/c1ccc(O)c(O)c1)OCCc1ccc(OCCc2ccc(O)cc2)cc1 | Carbonic anhydrase 1 (Homo sapiens, UniProt P00915) | = | 5.28
NCC(=O)NCC(=O)Nc1nccc(Nc2ccc(S(N)(=O)=O)cc2)n1 | Carbonic anhydrase 1 (Homo sapiens, UniProt P00915) | = | 7.22
Cc1cc(C)[n+](CC(=O)Nc2ccc(S(=O)(=O)Nc3ccc(S(N)(=O)=O)cc3)cc2)c(C)c1 | Carbonic anhydrase 1 (Homo sapiens, UniProt P00915) | = | 7.26
O=C(NO)[C@H]1C[C@H](NS(=O)(=O)c2ccc(-c3ccccc3)cc2)CN1S(=O)(=O)c1ccc(Cl)c(Cl)c1 | Carbonic anhydrase 1 (Homo sapiens, UniProt P00915) | < | 4.00
N/C(=N\S(=O)(=O)c1ccccc1SCc1cccc2ccccc12)NNc1nc(Cl)nc(Nc2cccc(S(N)(=O)=O)c2)n1 | Carbonic anhydrase 1 (Homo sapiens, UniProt P00915) | = | 5.48
NS(=O)(=O)c1ccccc1N1C(=O)c2c(Br)c(Br)c(Br)c(Br)c2C1=O | Carbonic anhydrase 1 (Homo sapiens, UniProt P00915) | < | 5.00
O=C1Nc2c(Br)cccc2S(=O)(=O)N1 | Carbonic anhydrase 1 (Homo sapiens, UniProt P00915) | = | 5.63
NCC(=O)NS(=O)(=O)c1nc2ccc(O)cc2s1 | Carbonic anhydrase 1 (Homo sapiens, UniProt P00915) | = | 7.80
COc1ccc2c(c1)OS(=O)(=O)C=C2 | Carbonic anhydrase 1 (Homo sapiens, UniProt P00915) | < | 5.00

---

Collected set of Ki measured with Carbonic anhydrase 1 (Homo sapiens, UniProt P00915) across studies.
readoutKind: Ki (nM)

structureNotation | readoutKind | unitLabel | resultValue
Cn1nc(S(N)(=O)=O)s/c1=N/S(=O)(=O)c1cccc(C(=O)OCCO)c1 | Ki | nM | 23
C[C@H](CCC(=O)OCc1ccc(S(N)(=O)=O)cc1)[C@H]1CC[C@H]2[C@@H]3CC[C@@H]4C[C@H](O)CC[C@]4(C)[C@H]3CC[C@]12C | Ki | nM | 800
NS(=O)(=O)c1nnc(NC(=O)C23CC4CC(CC(C4)C2)C3)s1 | Ki | nM | 883
N#CCCN(CCc1ccccc1)CC(=O)N(CCc1ccc(S(N)(=O)=O)cc1)Cc1ccco1 | Ki | nM | 301

---

Collected set of Ki measured with Carbonic anhydrase 1 (Homo sapiens) across studies.
Lab note - cut at 500 nM for Ki: criterion met if strictly below, criterion not met if not.

structureNotation | assaySystem | assignedClass
CC(=O)OC[C@H]1O[C@@H](O[C@H]2[C@H](OC(C)=O)[C@@H](OC(C)=O)[C@H](S(=O)(=O)NCc3ccc(S(N)(=O)=O)cc3)O[C@@H]2COC(C)=O)[C@H](OC(C)=O)[C@@H](OC(C)=O)[C@H]1OC(C)=O | Carbonic anhydrase 1 (Homo sapiens) | criterion not met
CCCC(CCC)C(=O)Nc1cc(Cl)c(S(N)(=O)=O)cc1S(N)(=O)=O | Carbonic anhydrase 1 (Homo sapiens) | criterion not met
O=C(/C=C/c1ccc(O)cc1)OCCc1ccc(O)cc1 | Carbonic anhydrase 1 (Homo sapiens) | criterion not met
C[C@H](CCC(=O)OCCc1ccc(S(N)(=O)=O)cc1)[C@H]1CC[C@H]2[C@@H]3[C@H](O)C[C@@H]4C[C@H](O)CC[C@]4(C)[C@H]3C[C@H](O)[C@]12C | Carbonic anhydrase 1 (Homo sapiens) | criterion not met
NS(=O)(=O)c1ccc(COC(=O)CN(CCN(CC(=O)O)CC(=O)OCc2ccc(S(N)(=O)=O)cc2)CC(=O)O)cc1 | Carbonic anhydrase 1 (Homo sapiens) | criterion met
CC(=O)OC[C@H]1O[C@@H](NC(=S)NNC(=O)c2ccc(S(N)(=O)=O)cc2)[C@H](OC(C)=O)[C@@H](OC(C)=O)[C@H]1OC(C)=O | Carbonic anhydrase 1 (Homo sapiens) | criterion not met
CC(C)(C)c1ccc(/C=N/c2ccc(S(N)(=O)=O)cc2)cc1 | Carbonic anhydrase 1 (Homo sapiens) | criterion met
